# System: CEM cells HIV-1 protection, formazan growth assay
# Experiment: NCI AIDS Antiviral Assay
# Assay Context: measured here: growth of uninfected CEM cells
Entries and their IC50

{"Compound": "Cc1cc2c3c(c1)S(=O)(=O)c1cc(Cl)ccc1N3CCC2", "System Name": "CEM cells HIV-1 protection, formazan growth assay", "Inequality Sign": ">", "IC50, µM": 200}
{"Compound": "O=C(O)c1ccc2c(c1)CC1(C2)Cc2cc3c(cc2C1=O)CCC3 (stereo unspecified)", "System Name": "CEM cells HIV-1 protection, formazan growth assay", "Inequality Sign": "=", "IC50, µM": 85.1}
{"Compound": "C/C(=N\\NC(=O)CC(=O)N(C(=O)c1ccccc1Cl)c1ccc(C)cc1)c1ccc(Cl)cc1", "System Name": "CEM cells HIV-1 protection, formazan growth assay", "Inequality Sign": ">", "IC50, µM": 14.1}
{"Compound": "Cc1cccc(/C=C2\\CCCCCC2=O)c1", "System Name": "CEM cells HIV-1 protection, formazan growth assay", "Inequality Sign": "=", "IC50, µM": 53.7}
{"Compound": "O=Cc1cc2c(cc1-c1cc3c(cc1C=O)OCO3)OCO2", "System Name": "CEM cells HIV-1 protection, formazan growth assay", "Inequality Sign": ">", "IC50, µM": 107}
{"Compound": "CSc1nc(SC)c2ncn(C3CC(Oc4ccc(C)cc4)C(COc4ccc(C)cc4)O3)c2n1 (stereo unspecified)", "System Name": "CEM cells HIV-1 protection, formazan growth assay", "Inequality Sign": "=", "IC50, µM": 66.1}
{"Compound": "CC(C)OC(=O)c1ccc(NCc2cc(O)ccc2O)cc1", "System Name": "CEM cells HIV-1 protection, formazan growth assay", "Inequality Sign": "=", "IC50, µM": 2.19}
{"Compound": "Cc1ccc(NC(=O)c2cc3ccccc3c(N=Nc3cc(S(=O)(=O)O)ccc3O)c2O)c(C)c1", "System Name": "CEM cells HIV-1 protection, formazan growth assay", "Inequality Sign": "=", "IC50, µM": 4.27}
{"Compound": "Cc1nc2[nH]ncn2c(=O)c1CCO", "System Name": "CEM cells HIV-1 protection, formazan growth assay", "Inequality Sign": ">", "IC50, µM": 200}
{"Compound": "Cc1cn2cc(-c3cccs3)nc2s1", "System Name": "CEM cells HIV-1 protection, formazan growth assay", "Inequality Sign": "=", "IC50, µM": 87.1}
{"Compound": "CC(=O)c1cc(CC2Cc3cc4c(cc3C2=O)CCC4)cc2c1CCC2 (stereo unspecified)", "System Name": "CEM cells HIV-1 protection, formazan growth assay", "Inequality Sign": "=", "IC50, µM": 12.9}

---

# Test system: CEM cells HIV-1 protection, formazan growth assay
# Experiment: NCI AIDS Antiviral Assay;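 active means compounds giving half or more protection of infected cells from virus-caused growth loss, again on retest; inactive means the rest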
Outcomes: Y (active), N (inactive)

{"Compound": "N#Cc1c2nc3ccccc3nc2n2ccccc12", "Qualitative Label": "N"}
{"Compound": "CCOC(=O)Cc1c[nH]c2ccc(N(CCO)CCO)cc12", "Qualitative Label": "N"}
{"Compound": "C=CCOC1=C(OC(C)=O)C(C2COC(C)(C)O2)OC1=O (configuration not stated)", "Qualitative Label": "N"}
{"Compound": "Cc1nc(SCC(N)=O)c2sc(=S)n(-c3ccccc3)c2n1", "Qualitative Label": "N"}
{"Compound": "COc1ccc(CN2COc3c(ccc4cccnc34)C2)cc1", "Qualitative Label": "N"}
{"Compound": "CC(C)(C)O/C=C1/C(=O)OC2C[C@@H](O[Si](C)(C)C(C)(C)C)CC12 (some centres not stated)", "Qualitative Label": "N"}
{"Compound": "COC(=O)c1cc(=O)nc(NN)s1", "Qualitative Label": "N"}
{"Compound": "Nc1nc(N)c(-c2ccc(Cl)c(Cl)c2)c(C[P+](c2ccccc2)(c2ccccc2)c2ccccc2)n1", "Qualitative Label": "N"}
{"Compound": "O=C(Nc1ccc(C2=NCCN2)cc1)c1cccc(C(=O)Nc2ccc(C3=NCCN3)cc2)c1Cl", "Qualitative Label": "Y"}
{"Compound": "C[N+](C)(C)CC(=O)NC(=O)N/N=C\\C(CC#N)CN(Cc1ccccc1)Cc1ccccc1 (configuration not stated)", "Qualitative Label": "N"}
{"Compound": "C[N+]1(C)CCCC(C#N)(c2ccccc2)CC1 (configuration not stated)", "Qualitative Label": "N"}
{"Compound": "Nc1c2ccccc2nc2c1ccc1ncccc12", "Qualitative Label": "N"}
{"Compound": "NC(CSSCC(N)=NCC12CC3CC(CC(C3)C1)C2)=NCC12CC3CC(CC(C3)C1)C2", "Qualitative Label": "N"}
{"Compound": "CO[C@@H]1C[C@H]2[C@@H]3CC[C@H]([C@H](C)CO)[C@@]3(C)CC[C@@H]2[C@@]2(C)CC[C@H]3C[C@]312", "Qualitative Label": "N"}
{"Compound": "COc1ccc(C(c2ccc(OC)cc2)N2C(=O)CCC2C(=O)O)cc1 (configuration not stated)", "Qualitative Label": "N"}
{"Compound": "O=C1c2cc(Oc3ccccc3)c(S(=O)(=O)O)c(S(=O)(=O)O)c2C(=O)c2c(O)ccc(O)c21", "Qualitative Label": "N"}
{"Compound": "N#CSCC(Cl)=CCl (mixture of isomers)", "Qualitative Label": "N"}
{"Compound": "O=C1NC(N2CCCCC2)=N/C1=C\\c1ccccc1", "Qualitative Label": "N"}
{"Compound": "COc1ccc(NC(=O)CSc2nnc(-c3ccc(N=Cc4ccc(Cl)cc4)cc3)o2)cc1", "Qualitative Label": "N"}
{"Compound": "CN/N=C(\\C(=O)Nc1ccc(C(F)(F)F)cc1[N+](=O)[O-])C(c1cnc2ccc([N+](=O)[O-])cc2n1)[N+](=O)[O-] (configuration not stated)", "Qualitative Label": "N"}
{"Compound": "O=C1c2ccc3cc(CCl)cc(O)c3c2C(=O)c2cccc(O)c21", "Qualitative Label": "N"}

---

# Tested on: CEM cells HIV-1 protection, formazan growth assay
# Experiment: NCI AIDS Antiviral Assay
# Assay Context: measured here: growth of uninfected CEM cells
pIC50: −log10 of the molar value.
Measured Metric: pIC50

{"Molecule": "CNc1cc(Cl)ccc1C(=O)N1CCC[C@H]1CO", "System Name": "CEM cells HIV-1 protection, formazan growth assay", "Inequality Sign": "=", "Readout Number": 3.72}
{"Molecule": "Nc1c(SSc2ccc3ccccc3c2N)ccc2ccccc12", "System Name": "CEM cells HIV-1 protection, formazan growth assay", "Inequality Sign": "=", "Readout Number": 4.83}
{"Molecule": "NC1CC(=O)c2c(Cl)sc(Cl)c21 (stereo not given)", "System Name": "CEM cells HIV-1 protection, formazan growth assay", "Inequality Sign": "=", "Readout Number": 5.46}
{"Molecule": "Clc1ccc(OCCSCCCCCCCCCCSCCOc2ccc(Cl)cc2)cc1", "System Name": "CEM cells HIV-1 protection, formazan growth assay", "Inequality Sign": "<", "Readout Number": 5.14}
{"Molecule": "COc1ccc2c(c1)c1cc(OC)ccc1n2CCCCOc1ccc(-c2c3ccccc3c(-c3ccc(OCCCCn4c5ccc(OC)cc5c5cc(OC)ccc54)cc3)c3ccccc23)cc1", "System Name": "CEM cells HIV-1 protection, formazan growth assay", "Inequality Sign": "<", "Readout Number": 5.81}
{"Molecule": "CC(C)(C)c1ccc(-c2nc3ccc(Cl)cc3c(=O)o2)cc1", "System Name": "CEM cells HIV-1 protection, formazan growth assay", "Inequality Sign": "=", "Readout Number": 5.03}
{"Molecule": "O=C(CCCN1CCC2(CC1)C(=O)NCN2c1ccc(F)cc1)c1ccc(F)cc1", "System Name": "CEM cells HIV-1 protection, formazan growth assay", "Inequality Sign": "<", "Readout Number": 3.70}
{"Molecule": "COC1(C)C(=O)N2C1N(C(=O)OC(C)(C)C)CC2(C)C (stereo not given)", "System Name": "CEM cells HIV-1 protection, formazan growth assay", "Inequality Sign": "<", "Readout Number": 3.42}
{"Molecule": "CCCCC(CC)CN=Cc1c(O)c(O)c(C(C)C)c2cc(C)c(-c3c(C)cc4c(C(C)C)c(O)c(O)c(C=NCC(CC)CCCC)c4c3O)c(O)c12 (stereo not given)", "System Name": "CEM cells HIV-1 protection, formazan growth assay", "Inequality Sign": "=", "Readout Number": 3.84}
{"Molecule": "Cc1c(C)c(CC(=O)N2CC2)c(C)c(C)c1CC(=O)N1CC1", "System Name": "CEM cells HIV-1 protection, formazan growth assay", "Inequality Sign": "=", "Readout Number": 6.10}

---

# Test system: CEM cells HIV-1 protection, formazan growth assay
# Experiment: NCI AIDS Antiviral Assay;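 active = compounds giving half or more protection of infected cells from virus-caused growth loss, again on retest; inactive = the rest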
Outcomes: active, inactive

{"Compound": "CCN(CC)c1ccc(N=Cc2cc(=O)n(C)c3ccccc23)cc1", "Qualitative Label": "inactive"}
{"Compound": "CCOC(=O)c1sc2nc(SC)nc3c2c1NCN3c1ccccc1Cl", "Qualitative Label": "inactive"}
{"Compound": "Clc1ccc(-c2nc3ccc(C45CC6CC(CC(C6)C4)C5)cc3[nH]2)cc1", "Qualitative Label": "inactive"}
{"Compound": "CCOC(=O)c1ccc(CS(=O)(=O)c2ccc(N)cc2)c([N+](=O)[O-])c1", "Qualitative Label": "inactive"}
{"Compound": "O=C1Cn2c(c3ccccc3nc2=O)N1", "Qualitative Label": "inactive"}
{"Compound": "Cc1nn(C(=O)Cc2ccccc2)c2c1C(c1ccc(O)cc1)SC(N)=N2 (stereo unspecified)", "Qualitative Label": "active"}
